Each record here notes measured half-life.
- assay: in vivo
- protocol.conditions: male, Sprague-Dawley, rat, iv, 1 mg/kg

# compound, half-life (h)
data = [
    ("C[C@@H](NC(=O)[C@@H]1C[C@@H]2[C@H](C1)C2(F)F)C(=O)N[C@H](Cc1ccccc1)C(=O)C(=O)NCc1ccccn1 [Compound 126]", 3.65),
    ("O=C(CC1CCC(F)(F)CC1)NCC(=O)N[C@H](Cc1ccccc1)C(=O)C(=O)NCc1ccccn1 [Compound 150]", 3.59),
    ("O=C(CNC(=O)C1CCC(F)(F)CC1)N[C@H](Cc1ccccc1)C(=O)C(=O)NCc1ccccn1 [Compound 155]", 3.12),
    ("C[C@@H](NC(=O)C1CCC(F)(F)CC1)C(=O)N[C@H](Cc1ccccc1)C(=O)C(=O)NCc1ccccn1 [Compound 145]", 1.37),
    ("C[C@@H](NC(=O)N1CCC(F)(F)CC1)C(=O)N[C@H](Cc1ccccc1)C(=O)C(=O)NCc1ccccn1 [Compound 296]", 3.55),
    ("C[C@@H](NC(=O)C1CCC(F)(F)CC1)C(=O)N[C@H](Cc1ccccc1)C(=O)C(=O)NCc1nccs1 [Compound 354]", 2.42),
]

----------
- assay.system: recombinant SARS-CoV-2 M^pro (Severe acute respiratory syndrome coronavirus 2 (2019-nCoV) (SARS-CoV-2), UniProt P0DTD1)
- assay: Inhibition of SARS-CoV-2 M^pro enzyme activity (fluorescent substrate assay)
- Type: biochemical
- protocol.conditions: inhibition of SARS-CoV-2 M^pro enzyme activity; values in nM; read-out: IC50
Each record here notes measured IC50.

# compound, result.units, IC50
records = [
    ("Cc1cc(-c2cc(Cl)cc(C#N)c2)nn1C1(C(=O)N[C@H](Cc2ccccc2)C(=O)C(=O)NCc2nccs2)CC1", "nM", 56.2),
    ("O=C(Cn1cc(-c2ccc(F)nc2)cn1)N[C@H](Cc1ccccc1)C(=O)C(=O)NCc1nccs1", "nM", 451),
    ("COc1ccccc1OCC(=O)N[C@H](C)C(=O)N[C@H](Cc1ccccc1)C(=O)C(=O)NCc1ccccn1", "nM", 40.9),
    ("O=C(NCc1ccccn1)C(=O)[C@@H](Cc1ccccc1)NC(=O)[C@H]1C[C@@H]2C[C@@H]2N1C(=O)CC1CCC(F)(F)CC1", "nM", 17),
    ("O=C(NCc1nccs1)C(=O)[C@@H](Cc1ccccc1)NC(=O)C1CC1C(=O)NC1CC(F)(F)C1 (stereo partly shown)", "nM", 477),
    ("O=C(Cc1noc(-c2ccc(F)c(F)c2)n1)N[C@H](Cc1ccccc1)C(=O)C(=O)NCc1nccs1", "nM", 33),
    ("O=C(NCc1ccccn1)C(=O)[C@@H](Cc1ccccc1)NC(=O)C1(NC(=O)C2CCCC(F)(F)C2)CCC1 (stereo partly shown)", "nM", 16.7),
]

----------
- assay: in vivo
- protocol.conditions: male, Sprague-Dawley, rat, iv, 1 mg/kg
outcome.measure: AUC(0-t) (ng·h/mL)

# smiles.entry, result.units, result
records = [
    ("O=C(CC1CCC(F)(F)CC1)NCC(=O)N[C@H](Cc1ccccc1)C(=O)C(=O)NCc1ccccn1", "ng·h/mL", 6420),
    ("O=C(CNC(=O)C1CCC(F)(F)CC1)N[C@H](Cc1ccccc1)C(=O)C(=O)NCc1ccccn1", "ng·h/mL", 5100),
    ("C[C@@H](NC(=O)[C@@H]1C[C@@H]2[C@H](C1)C2(F)F)C(=O)N[C@H](Cc1ccccc1)C(=O)C(=O)NCc1ccccn1", "ng·h/mL", 1050),
    ("C[C@@H](NC(=O)C1CCC(F)(F)CC1)C(=O)N[C@H](Cc1ccccc1)C(=O)C(=O)NCc1ccccn1", "ng·h/mL", 1160),
    ("C[C@@H](NC(=O)N1CCC(F)(F)CC1)C(=O)N[C@H](Cc1ccccc1)C(=O)C(=O)NCc1ccccn1", "ng·h/mL", 1020),
]

----------
- assay: in vivo
- protocol.conditions: male, Sprague-Dawley, rat, po, 10 mg/kg
Classification field: enter TRUE for AUC(0-t) values not below 5000 ng·h/mL, FALSE for values below it.

# molecule, class.label
data = [
    ("O=C(CNC(=O)C1CC12CCC(F)(F)CC2)N[C@H](Cc1ccccc1)C(=O)C(=O)NCc1ccccn1 (stereo partly shown)", "TRUE"),
    ("O=C(CCC1CCC(F)(F)CC1)NCC(=O)N[C@H](Cc1ccccc1)C(=O)C(=O)NCc1ccccn1", "TRUE"),
    ("C[C@@H](NC(=O)N1CCC(F)(F)CC1)C(=O)N[C@H](Cc1ccccc1)C(=O)C(=O)NCc1ccccn1", "TRUE"),
    ("O=C(NCc1ccccn1)C(=O)[C@@H](Cc1ccccc1)NC(=O)[C@H]1COCCN1C(=O)CC1CCC(F)(F)CC1", "FALSE"),
    ("C[C@@H](NC(=O)C1CCC(F)(F)CC1)C(=O)N[C@H](Cc1ccccc1)C(=O)C(=O)NCc1ccccn1", "FALSE"),
    ("O=C(CNC(=O)C1CCC(F)(F)CC1)N[C@H](Cc1ccccc1)C(=O)C(=O)NCc1ccccn1", "TRUE"),
    ("C[C@@H](NC(=O)[C@@H]1C[C@@H]2[C@H](C1)C2(F)F)C(=O)N[C@H](Cc1ccccc1)C(=O)C(=O)NCc1ccccn1", "TRUE"),
]

----------
- assay.system: recombinant SARS-CoV-2 M^pro (Severe acute respiratory syndrome coronavirus 2 (2019-nCoV) (SARS-CoV-2))
- assay: Inhibition of SARS-CoV-2 M^pro enzyme activity (fluorescent substrate assay)
- Type: biochemical
- protocol.conditions: inhibition of SARS-CoV-2 M^pro enzyme activity; values in nM; read-out: IC50
Lab note: cut-off is 20 nM. Strictly less in IC50 is Yes. Exactly 20 nM or more is No.

# molecule, class.label
rows = [
    ("O=C(NCc1nccs1)C(=O)[C@@H](Cc1ccccc1)NC(=O)C1(NC(=O)C2CCC(F)(F)CC2)CC1", "No"),
    ("CC(C)(NC(=O)C1CC12CCC(F)(F)CC2)C(=O)N[C@H](Cc1ccccc1)C(=O)C(=O)NCc1ccccn1 (stereo partly shown)", "Yes"),
    ("O=C(NCc1ccccn1)C(=O)[C@@H](Cc1ccccc1)NC(=O)[C@H]1CCCCN1C(=O)CC1CCC(F)(F)CC1", "Yes"),
    ("C[C@@H](OCc1cccc(OC(F)(F)F)c1)C(=O)N[C@H](Cc1ccccc1)C(=O)C(=O)NCc1ccccn1", "Yes"),
    ("C[C@@H](NC(=O)CC1CCS(=O)(=O)CC1)C(=O)N[C@H](Cc1ccccc1)C(=O)C(=O)NCc1ccccn1", "No"),
    ("C[C@@H](NC(=O)COc1ccccc1F)C(=O)N[C@H](Cc1ccccc1)C(=O)C(=O)NCc1ccccn1", "No"),
    ("C[C@@H](NC(=O)C1CCC(F)(F)CC1)C(=O)N[C@H](Cc1ccccc1)C(=O)C(=O)NCc1ccccn1 [Compound 317]", "Yes"),
]

----------
- assay.system: recombinant SARS-CoV-2 M^pro (Severe acute respiratory syndrome coronavirus 2 (2019-nCoV) (SARS-CoV-2))
- assay: Inhibition of SARS-CoV-2 M^pro enzyme activity (fluorescent substrate assay)
- Type: biochemical
- protocol.conditions: inhibition of SARS-CoV-2 M^pro enzyme activity; values in nM; read-out: IC50
Binning rule for recorded IC50: A = under 20 nM, B = from 20 nM up to 40 nM, C = 40 nM and over

# molecule, class.label
rows = [
    ("O=C(NCc1ccccn1)C(=O)[C@@H](Cc1ccccc1)NC(=O)C12CC(CN1C(=O)C1CCC(F)(F)CC1)C2", "C"),
    ("CC(C)(C(=O)NC1CCC(F)(F)CC1)C(=O)N[C@H](Cc1ccccc1)C(=O)C(=O)NCc1ccccn1", "B"),
    ("C[C@@H](NC(=O)C1(c2ccccc2)CC1)C(=O)N[C@H](Cc1ccccc1)C(=O)C(=O)NCc1ccccn1", "B"),
    ("C[C@@H](NC(=O)C1CC12CCC(F)(F)CC2)C(=O)N[C@H](Cc1ccccc1)C(=O)C(=O)NCc1nccs1 (some centres unmarked)", "A"),
    ("C[C@@H](NC(=O)C(C#N)Cc1ccccc1)C(=O)N[C@H](Cc1ccccc1)C(=O)C(=O)NCc1ccccn1 (some centres unmarked)", "B"),
    ("O=C(COc1ccccc1)N[C@H](Cc1ccccc1)C(=O)C(=O)NCc1nccs1", "C"),
    ("CC[C@@H](C)C(NC(=O)c1ccc(F)cc1)C(=O)N[C@H](Cc1ccccc1)C(=O)C(=O)NCc1ccccn1 (some centres unmarked)", "B"),
    ("C[C@@H](NC(=O)CC1CC1(F)F)C(=O)N[C@H](Cc1ccccc1)C(=O)C(=O)NCc1cscn1 (some centres unmarked)", "B"),
    ("O=C(NCc1ccccn1)C(=O)[C@@H](Cc1ccccc1)NC(=O)C1(NC(=O)C2CC3CCC2C3)CCC1 (some centres unmarked)", "A"),
    ("CC(C)[C@@H](OCc1ccc(F)cc1)C(=O)N[C@H](Cc1ccccc1)C(=O)C(=O)NCc1ccc(Cl)cn1", "A"),
    ("O=C(NCc1nccs1)C(=O)[C@@H](Cc1ccccc1)NC(=O)c1ccccc1F", "C"),
    ("C[C@@H](OCc1ccc(F)cc1)C(=O)N[C@H](Cc1ccc2ccccc2c1)C(=O)C(=O)NCc1ccc(Cl)cn1", "C"),
    ("O=C(Cn1cc(-c2ccc(F)c(Cl)c2)cn1)N[C@H](Cc1ccccc1)C(=O)C(=O)NCc1nccs1", "B"),
]
